CONDITION_NOTES: 293.15 K; 101 kPa
Threshold rule: viscosity greater than or equal to 7 mPa·s is 1; below that, 0.

stdin: Entry CC(C)(C)O : is its viscosity no less than 7 mPa·s?
stdout: 0

stdin: Form field: viscosity at least 7 mPa·s? Entry: COP(=O)([O-])OC.Cn1cc[n+](C)c1
stdout: 1

stdin: Has CCCC a recorded viscosity greater than or equal to 7 mPa·s?
stdout: 0

stdin: Please tell me: is the compound COCCOCCOCCO at or over 7 mPa·s in terms of viscosity?
stdout: 1

stdin: In plain terms: is recorded viscosity at least 7 mPa·s for C[NH+](CCO)CCO.O=C[O-] ?
stdout: 1

stdin: Identify whether the reported viscosity of the following compound is 7 mPa·s or greater: CN(CCO)CCO
stdout: 1

stdin: Please tell me: is the compound CCCBr at or over 7 mPa·s in terms of viscosity?
stdout: 0

###

Give viscosity for every item shown.
CONDITION_NOTES: 308.15 K; 101.3 kPa
± gives the uncertainty stated by the source.
A bare number is not enough; add the unit after it.

stdin: Requested field: viscosity. Item: NCCN
stdout: 1.167 ± 0.12 mPa·s

stdin: Please give the measured viscosity for this compound: CC(C)(C)O
stdout: 2.55 ± 0.015 mPa·s

stdin: # viscosity lookup, item Nc1ccccc1
stdout: 2.7 ± 0.07 mPa·s

stdin: So what's the measured viscosity for this one? CCCCCCCC(=O)[O-].c1c[nH+]c[nH]1
stdout: 45.3 ± 1.1 mPa·s

###

METHOD_DESCRIPTION: xn = mol fraction of the nth substance listed
CONDITION_NOTES: 303.2 K; 101.33 kPa; x2 = 0.5
Values of viscosity greater than or equal to 2 mPa·s map to t; values below map to f.

stdin: Is the recorded value of viscosity equal to or greater than 2 mPa·s for this molecule? CC(C)(C)O + CO
stdout: f

stdin: Has CC(C)(C)O + O a recorded viscosity greater than or equal to 2 mPa·s?
stdout: t

stdin: Form field: viscosity at least 2 mPa·s? Entry: CC(C)(C)O + CC(C)O
stdout: t

stdin: Confirm if viscosity reported for the molecule CC(C)(C)O + CCO is 2 mPa·s or above.
stdout: t

stdin: Given CC(C)(C)O + CCCCCC , state whether its viscosity is at least 2 mPa·s.
stdout: f

stdin: Assess whether reported viscosity for CC(C)(C)O + c1ccccc1 sits at 2 mPa·s or higher.
stdout: f

###

METHOD_DESCRIPTION: xn = mol fraction of the nth substance listed
CONDITION_NOTES: 303.2 K; 101.33 kPa; x2 = 0.2
Think of 3 mPa·s as a floor: if viscosity stands on it or above, it is criterion met; beneath it, criterion not met.

stdin: I'd appreciate it if you could say whether CC(C)(C)O + CO has viscosity at least equal to 3 mPa·s.
stdout: criterion not met

stdin: Entry CC(C)(C)O + c1ccccc1 : is its viscosity no less than 3 mPa·s?
stdout: criterion not met

stdin: Entry CC(C)(C)O + CCCCCC : is its viscosity no less than 3 mPa·s?
stdout: criterion not met

stdin: Assess whether reported viscosity for CC(C)(C)O + O sits at 3 mPa·s or higher.
stdout: criterion met

stdin: # check: viscosity of CC(C)(C)O + CC(C)O is greater than or equal to 3 mPa·s
stdout: criterion met
